protocol.text: Relative antioxidant activity assessed as resorcinol equivalents of hydroperoxyl scavenging activity at acidic pH by BR oscillating reaction method
Format: ADME
Listing: Activity of selected compounds
value.kind: Activity (µM)

[[record]]
compound = "Cc1cn2cc(-c3ccc(O)c(O)c3O)nc2s1"
value_kind = "Activity"
test_result = 0.14

[[record]]
compound = "O=c1c(-c2ccc(O)cc2)coc2c([C@@H]3O[C@H](CO)[C@@H](O)[C@H](O)[C@H]3O)c(O)ccc12 [PUERARIN]"
value_kind = "Activity"
test_result = 0.192

[[record]]
compound = "Oc1ccc(O)c(-c2cn3ccsc3n2)c1"
value_kind = "Activity"
test_result = 1.032

[[record]]
compound = "Oc1cc(O)c2c(c1)O[C@@H](c1ccc(O)c(O)c1)[C@H](O)C2 [(-)-CATECHIN]"
value_kind = "Activity"
test_result = 2.2

